In this section, each of the compounds is paired with its reported Plant response rating, Cocklebur.
Test system: cocklebur
assay_summary: Test C pre-/postemergence herbicide test
Type: in vivo, Xanthium strumarium
test_conditions: 250 g ai/ha; scale 0-100; preemergence
Just the number, please, no unit after it.

Below: 3 compounds and their reported Plant response rating, Cocklebur.
CCn1nc(C(C)(C)C)cc1C(=O)Nc1cccc(OC(F)F)c1
0
CCOC(=O)c1cccc(NC(=O)c2nn(C(C)(C)CC)nc2CC)c1
0
CCC1=NN(C(C)(C)C)CC1C(=O)Nc1cc(C(=O)N(C)C)ccc1F (racemic)
80

For the next question, use this compound.
Task item: Data request, read-out Plant response rating, Cocklebur, for CCn1nc(C(C)(C)C)cc1C(=O)Nc1cc(C(=S)N(C)C)ccn1
Reply: 70
